- Test system: M14
- Procedure Summary: NCI tumour cell line growth inhibition, 48 h
Activity calls are given as the source filed them. Rule as the data show it: active = GI50 up to about 1.1 µM and inactive = higher.
// classify into t (active), f (inactive)

In: Which result was noted for this molecule in the test: Cn1c(C(C#N)c2cc(Cl)ncn2)nc2ccccc21 (centres undefined)
Out: f

In: So what was the verdict on CC1=CC(C)C(C)N(CCNS(=O)(=O)c2ccc(C)cc2)c2ccccc21 (centres undefined) in this test?
Out: f

In: Write down the call the test reported for this molecule. Item: COc1cccc(OC)c1/C=C1\OC(=O)c2cccc(OC)c21
Out: f

In: In this assay, the call recorded for Cc1cc(=O)n(-c2ccccc2)c(=O)o1 was what?
Out: f

In: Could you check what this test reported for C/C=C/[C@H]1O[C@@](O)([C@@H](C)[C@H](O)[C@H](C)[C@H]2OC(=O)/C(OC)=C/C(C)=C/[C@@H](C)[C@@H](O)[C@@H](CC)[C@@H](O)[C@H](C)C/C(C)=C/C=C/[C@@H]2OC)C[C@H](OC2CC(O)C(O)C(C)O2)[C@@H]1C (some centres undefined) ?
Out: t

In: Tell me the recorded outcome of this test for COc1cc2c3c(n(Cc4ccccc4)c(=O)c2cc1OC)-c1ccccc1C3=O .
Out: f

In: Outcome? CCOC(=O)C1=C(C)NC(C)=C(C(=O)OCC)C1c1ccc(C)cc1
Out: f

In: Could you please tell me the result logged for COc1ccc(CCCNC(=O)c2cc(OC)c(OC)cc2CCO)cc1OC in this assay?
Out: f

In: GET /call?item= COC(=O)[C@@H]1C[C@@H](O)CN1C(=O)c1ccc([N+](=O)[O-])cc1[N+](=O)[O-] returns the recorded outcome of this test.
Out: f

----------
So I've got a bunch of compounds here, and I need their GI50 values.
- Test system: SF-295
- Procedure Summary: NCI tumour cell line growth inhibition, 48 h
Active and inactive are the calls of the source. Rule as the data show it: active = GI50 up to about 1.1 µM and inactive = higher.

Looking up O=C1C2C3C=C4c5ccccc5N(c5ccccc5)C4(C2C(=O)N1c1ccc(Cl)cc1)[C@H]1C(=O)N(c2ccc(Cl)cc2)C(=O)[C@@H]31 (stereo partly specified) , I found its GI50 recorded as > 100 µM (inactive)

Noted for Cc1cccc(C)c1NC(=O)CCC(=O)CC(=O)C(C)C : its GI50 reads > 100 µM (inactive)

Form: compound = COc1ccc2c(c1OC)OC[C@@H](C1=CC(=O)C=C(O)C1=O)C2 ; GI50 = 16.1 µM (inactive)

Note to self: GI50 recorded for O=C(CSc1nnc(Cc2ccccc2)o1)Nc1cccc([N+](=O)[O-])c1 was > 100 µM (inactive)

GI50 in this record for Cc1cc(NS(=O)(=O)c2ccc(Nc3c4ccccc4nc4ccc(C(=O)Nc5ccc(S(=O)(=O)N=C(N)N)cc5)cc34)cc2)no1 : > 100 µM (inactive)

Just so you know, measured GI50 for CC(C)=CCc1c(O)cc(O)c2c1OC(c1ccc(O)cc1)C(O)C2=O (stereo unspecified) came out at 27.5 µM (inactive)

# compound Cc1cc(C)c(S(=O)(=O)N(CCCCCCN)OCCCON(CCCCCCN)S(=O)(=O)c2c(C)cc(C)cc2C)c(C)c1 ; its GI50 = 1.82 µM (inactive)

// GI50 lookup, compound = Nc1ncc(Cc2ccc3c(c2)OCO3)c(N)n1 , result: > 100 µM (inactive)

Query CCCC[C@@H](C)/C=C1\CN2CCC[C@H]2[C@@](C)(OCc2ccccc2)[C@@H]1O yields GI50 of > 50 µM (inactive)

Consider O=c1c(C(c2cccc(C(c3c(O)oc4ccccc4c3=O)c3c(O)oc4ccccc4c3=O)c2)c2c(O)oc3ccccc3c2=O)c(O)oc2ccccc12 . Its measured GI50 is 41.5 µM (inactive)

Reported GI50 for O=C(CCSC(CC(=O)c1ccc(Cl)cc1)c1ccc(Cl)cc1)Nc1ccc(Cl)cc1 (stereo unspecified) was 9.44 µM (inactive)

Entry CC1=NN=C(N)N/C1=C/C(Sc1ccc(Cl)cc1)c1cccs1 (stereo unspecified) , GI50 reported as 11.7 µM (inactive)

What the record says about C/C(CC(=O)Nc1ccc(Cl)cc1)=N\NC(=O)C[n+]1ccccc1 : GI50 is > 100 µM (inactive)

# GI50 of COC(=O)C1Cc2cccc(C)c2C1 (stereo unspecified) = > 100 µM (inactive)

Just so you know, measured GI50 for CC(C)(C)C(=O)/C=C(\OB(F)F)C(C)(C)C came out at > 100 µM (inactive)

Consider COc1cc2c(cc1OC)[C@@H]([C@H](O)c1ccccc1)NCC2 . Its measured GI50 is > 100 µM (inactive)

Origin of measurements: ChEMBL document CHEMBL1201862
